# Study Target: α1-adrenergic receptor
# Procedure Text: Displacement of specific binding of [3H]prazosin from rat forebrain membranes
# Experimental Conditions: IC50 for displacement of specific binding, 0.2 nM radioligand
# Protocol: Compounds of the formula I have selectivity for NR^2B subunit-containing NMDA receptors over α1-adrengergic receptors. Affinity for the NR^2B subunit containing NMDA receptor is measured as the IC50 for displacement of specific binding of racemic [^3H] (+)-(1S, 2S)-1-(4-hydroxy-phenyl)-2-(4-hydroxy-4-phenylpiperidino)-1-propanol from rat forebrain membranes (described above). […]
Reported Endpoint: IC50 (µM)

[[record]]
molecule = "Oc1ccc2c(c1)OC[C@@H](N1CCC(O)(c3ccc(F)cc3)CC1)[C@H]2O"
comparison_sign = ">"
measurement = 10

[[record]]
molecule = "OC(CN1CCC(Cc2ccc(F)cc2)CC1)c1ccc(Cl)cc1 (stereo not shown) [Eliprodil, reference compound]"
comparison_sign = "="
measurement = 0.98

[[record]]
molecule = "COc1cc([C@H](O)[C@H](C)N2CCC(O)(c3ccccc3)CC2)ccc1O"
comparison_sign = "="
measurement = 8.1

[[record]]
molecule = "C[C@@H]([C@@H](O)c1ccc(O)cc1)N1CCC(O)(c2ccccc2)CC1"
comparison_sign = "="
measurement = 19.5

